system: HCT-15 colon; experiment: NCI tumour cell line growth inhibition, 48 h
attribute.measured: TGI

Some compounds with known TGI results, for comparison:
compound	TGI
Nc1nc(SC/C=C/c2ccccc2)c2[nH]cnc2n1	> 100 µM
O=c1[nH]nc(Cc2ccccc2)n1/N=C/c1ccccc1O	> 100 µM
Cc1ccc(NC(=O)CCc2cc(C(C)(C)C)nc(=S)[nH]2)cc1C	> 100 µM
c1ccc(CCNc2ccccn2)nc1	> 100 µM
COc1cc2c3c(n(C)c(=O)c2cc1OC)-c1cc2c(cc1/C3=C\CN)OCO2	19.8 µM

// sample `COC1(OC)C(N(C)C)=C(Cl)C(=O)/C1=C/C=O` , its TGI was > 100 µM

// sample `COc1ccc(NC(=O)/C(Cc2cc(=O)oc3cc(O)ccc23)=N\NC(C)(C)C)c(OC)c1` , its TGI was > 100 µM

// sample COc1cc(NCc2ccc3nc(N)nc(N)c3c2C)cc(OC)c1OC (tested in a mixture with another compound) , its TGI was 51.7 µM

// sample C/C=C(/C)C(=O)O[C@@H]1CCN2CC[C@H](COC(=O)/C(=C/C)CO)C12 (stereo partly specified) , its TGI was > 100 µM

// sample `O=C1/C(=C/c2cccc(Cl)c2Cl)N=C(c2ccccc2)N1C1CC1` , its TGI was 39 µM

// sample `Cc1c2c(C#N)nccc2c(C)c2c1c1ccccc1n2Cc1ccccc1` , its TGI was > 100 µM

// sample COc1ccc(C(OCC2OC(n3cc(C)c(=O)[nH]c3=O)CC2n2cc(Cn3cc(Cl)c(=O)[nH]c3=O)nn2)(c2ccccc2)c2ccccc2)cc1 (stereo unspecified) , its TGI was > 100 µM

// sample `CC(=O)Oc1ccc2c(C)cc(=O)oc2c1OC(C)=O` , its TGI was 81.6 µM

// sample `Cc1cc(Cl)ccc1NC(=O)C(=O)Cc1nc2ccccc2o1` , its TGI was > 100 µM

// sample `COc1cc2c(cc1OCCCNC(=O)c1cccc3c(=O)c4ccccc4[nH]c13)N=C[C@@H]1CCCN1C2=O` , its TGI was > 100 µM

// sample COc1cc(C2c3cc4c(cc3OC3(OC)COC(=O)C23)OCO4)cc(OC)c1OC(C)=O (stereo unspecified) , its TGI was > 100 µM

// sample CC(C)(C)c1ccc(O)c(C(O)c2ccncc2)c1 (stereo unspecified) , its TGI was > 100 µM

// sample CN(C)CCCC12CCCCC1=Nc1ccccc12 (stereo unspecified) , its TGI was > 100 µM

// sample Cc1ccccc1N1C(=O)C2C=CC(n3[nH]c(=O)n(Cc4ccccc4)c3=O)CC2C1=O (stereo unspecified) , its TGI was > 100 µM

// sample CC(=O)OC12C=CC(=O)N1c1ccccc1C(=O)O2 (stereo unspecified) , its TGI was > 100 µM

// sample `CCC[CH2][Sn]([Cl])([CH2]CCC)[CH2]CCC` , its TGI was 0.242 µM
